Molecular target: Free fatty acid receptor 2 (Homo sapiens)
Sequence (O15552 whole entry): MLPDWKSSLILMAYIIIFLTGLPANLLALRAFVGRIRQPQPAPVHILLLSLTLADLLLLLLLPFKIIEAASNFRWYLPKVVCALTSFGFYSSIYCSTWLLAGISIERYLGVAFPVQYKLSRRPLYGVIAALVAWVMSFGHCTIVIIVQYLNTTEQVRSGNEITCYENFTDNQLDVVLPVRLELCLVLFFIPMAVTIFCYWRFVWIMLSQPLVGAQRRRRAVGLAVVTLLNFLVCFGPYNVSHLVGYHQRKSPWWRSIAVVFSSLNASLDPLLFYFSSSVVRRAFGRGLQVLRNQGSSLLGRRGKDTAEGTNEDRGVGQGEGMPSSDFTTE
Assay: Agonist activity at human FFA2 receptor expressed in CHO cells assessed as increase in intracellular calcium flux by Fluo-8 dye based FLIPR assay
assay.endpoint: EC50

For Cc1cccc(OCCC2CCOC3(CCN(Cc4ccc(COc5ccc(CCC(=O)O)cc5)cc4)CC3)C2)n1.Cl.Cl (stereo unspecified) the compound record lists EC50 as > 10 µM

----------
target: Free fatty acid receptor 1 (Homo sapiens); assay: Agonist activity at human GPR40 expressed in CHO cells assessed as increase in intracellular calcium flux by Fluo-8 dye based FLIPR assay
Sequence (O14842 whole entry): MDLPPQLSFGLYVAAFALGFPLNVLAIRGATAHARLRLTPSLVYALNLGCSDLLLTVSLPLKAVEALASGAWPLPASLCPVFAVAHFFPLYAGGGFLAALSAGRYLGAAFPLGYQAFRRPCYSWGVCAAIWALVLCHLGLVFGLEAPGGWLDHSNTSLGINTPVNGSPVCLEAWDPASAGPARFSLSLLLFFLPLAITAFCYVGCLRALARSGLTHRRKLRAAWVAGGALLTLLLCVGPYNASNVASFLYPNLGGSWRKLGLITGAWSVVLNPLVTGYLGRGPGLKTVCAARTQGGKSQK
Please provide measured EC50 for the entries that follow.
Lab book: enter the figure in nM, no units written.

For O=C(O)CCc1ccc(OCc2ccc(CN3CCC4(CC3)CC(CCOc3ccc5ccccc5n3)CCO4)cc2)cc1 (stereo not given) the compound record lists EC50 as 2360

For O=C(O)CCc1ccc(OCc2ccc(CN3CCC4(CC3)CC(CCOc3ccc(F)cc3)CCO4)cc2)cc1 (stereo not given) the compound record lists EC50 as 2060

For Cc1cnc(C)c(OCCC2CCOC3(CCN(Cc4ccc(COc5ccc(CCC(=O)O)cc5)cc4)CC3)C2)n1 (stereo not given) the compound record lists EC50 as 1140

For O=C(O)CCc1ccc(OCc2ccc(CN3CCC4(CC3)CC(CCOc3ccncc3)CCO4)cc2)cc1 (stereo not given) the compound record lists EC50 as 6100

For O=C(O)CCc1ccc(OCc2ccc(CN3CCC4(CC3)CC(CCOc3ncnc5c3CCC5)CCO4)cc2)cc1 (stereo not given) the compound record lists EC50 as 1260

For Cc1ccnc(OCCC2CCOC3(CCN(Cc4ccc(COc5ccc(CCC(=O)O)cc5)cc4)CC3)C2)c1 (stereo not given) the compound record lists EC50 as 1110

For Cc1cccc(OCCC2CCOC3(CCN(Cc4ccc(COc5ccc(CCC(=O)O)cc5)cc4)CC3)C2)n1.Cl.Cl (stereo not given) the compound record lists EC50 as 260

For O=C(O)CCc1ccc(OCc2ccc(CN3CCC4(CC3)CC(Oc3ccccn3)CCO4)cc2)cc1 (stereo not given) the compound record lists EC50 as 900

For Cc1nccnc1OCCC1CCOC2(CCN(Cc3ccc(COc4ccc(CCC(=O)O)cc4)cc3)CC2)C1 (stereo not given) the compound record lists EC50 as 1270

For O=C(O)CCc1ccc(OCc2ccc(CN3CCC4(CC3)CC(CCOc3cccnc3)CCO4)cc2)cc1 (stereo not given) the compound record lists EC50 as 2560

For O=C(O)CCc1ccc(OCc2ccc(CN3CCC4(CC3)CC(CCOc3ccc(C(F)(F)F)cn3)CCO4)cc2)cc1 (stereo not given) the compound record lists EC50 as 33500

For O=C(O)CCc1ccc(OCc2ccc(CN3CCC4(CC3)CC(CCOc3cnccn3)CCO4)cc2)cc1 (stereo not given) the compound record lists EC50 as 1480

For O=C(O)CCc1ccc(OCc2ccc(CN3CCC4(CC3)CC(CCOc3ncccn3)CCO4)cc2)cc1 (stereo not given) the compound record lists EC50 as 3870

For O=C(O)CCc1ccc(OCc2ccc(CN3CCC4(CC3)CC(CCOc3nc(C5CC5)nc5c3CCC5)CCO4)cc2)cc1 (stereo not given) the compound record lists EC50 as 1210
